# Test system: ESCHERICHIA COLI H560
# TEST_SUMMARY: In vitro antibacterial activity, MIC, BHI agar dilution
# Type: cell-based
# EXPERIMENTAL_SETUP: E. coli H560, unit assumed
MEASURE: MIC (µg/mL)
Give a bare numeral; the unit µg/mL is implied.

CC[C@H]1OC(=O)[C@H](C)C(=O)[C@H](C)[C@@H](O[C@@H]2O[C@H](C)C[C@H](N(C)C)[C@H]2O)[C@](C)(OC)C[C@@H](C)C2=NC3CN(CCc4ccc(N)cc4)CC3N3C(=O)O[C@@]1(C)[C@H]3[C@H]2C (some centres unmarked) = 25

Entry "CC[C@H]1OC(=O)[C@H](C)C(=O)[C@H](C)[C@@H](O[C@@H]2O[C@H](C)C[C@H](N(C)C)[C@H]2O)[C@](C)(OC)C[C@@H](C)C2=N[C@@H](Cc3ccccc3)CN3C(=O)O[C@@]1(C)[C@H]3[C@H]2C" has what MIC? 25

Entry "CC[C@H]1OC(=O)[C@H](C)C(=O)[C@H](C)[C@@H](O[C@@H]2O[C@H](C)C[C@H](N(C)C)[C@H]2O)[C@](C)(OC)C[C@@H](C)C2=NC[C@H](CSCc3ccccc3)N3C(=O)O[C@@]1(C)[C@H]3[C@H]2C" has what MIC? 12.5

Entry CC[C@H]1OC(=O)[C@H](C)C(=O)[C@H](C)[C@@H](O[C@@H]2O[C@H](C)C[C@H](N(C)C)[C@H]2O)[C@](C)(OC)C[C@@H](C)C2=NC3CN(C)CC3N3C(=O)O[C@@]1(C)[C@H]3[C@H]2C (some centres unmarked) has what MIC? 50

Entry "CC[C@H]1OC(=O)[C@H](C)C(=O)[C@H](C)[C@@H](O[C@@H]2O[C@H](C)C[C@H](N(C)C)[C@H]2O)[C@](C)(OC)C[C@@H](C)C2=NC[C@H](COCc3ccc(F)cc3)N3C(=O)O[C@@]1(C)[C@H]3[C@H]2C" has what MIC? 12.5

Entry CCC1OC(=O)C(C)C(=O)C(C)C(OC2OC(C)CC(N(C)C)C2O)C(C)(OC)CC(C)C2=NC(COCc3cc(OC)cc(OC)c3)CN3C(=O)OC1(C)C3C2C (centres unmarked) has what MIC? 50

Entry CC[C@H]1OC(=O)[C@H](C)C(=O)[C@H](C)[C@@H](O[C@@H]2O[C@H](C)C[C@H](N(C)C)[C@H]2O)[C@](C)(OC)C[C@@H](C)C2=NCC(COC(=O)c3cc4ccccc4n3C)N3C(=O)O[C@@]1(C)[C@H]3[C@H]2C (some centres unmarked) has what MIC? 25

* * *

# System: STAPHYLOCOCCUS AUREUS CMX 553
# TEST_SUMMARY: In vitro antibacterial activity, MIC, BHI agar dilution
# Type: cell-based
# EXPERIMENTAL_SETUP: S. aureus CMX 553, unit assumed
MEASURE: MIC

Worked set:
CC[C@H]1OC(=O)[C@H](C)C(=O)[C@H](C)[C@@H](O[C@@H]2O[C@H](C)C[C@H](N(C)C)[C@H]2O)[C@](C)(OC)C[C@@H](C)C2=NCC(COC(=O)c3ccc4ccccc4n3)N3C(=O)O[C@@]1(C)[C@H]3[C@H]2C (stereo partly drawn) = 0.2 µg/mL
CC[C@H]1OC(=O)[C@H](C)C(=O)[C@H](C)[C@@H](O[C@@H]2O[C@H](C)C[C@H](N(C)C)[C@H]2O)[C@](C)(OC)C[C@@H](C)C2=N[C@@H](C)[C@H](C)N3C(=O)O[C@@]1(C)[C@H]3[C@H]2C = 0.39 µg/mL
CC[C@H]1OC(=O)[C@H](C)C(=O)[C@H](C)[C@@H](O[C@@H]2O[C@H](C)C[C@H](N(C)C)[C@H]2O)[C@](C)(OC)C[C@@H](C)C2=N[C@H](COCc3cc(C)c4ccccc4n3)CN3C(=O)O[C@@]1(C)[C@H]3[C@H]2C = 0.2 µg/mL
CC[C@H]1OC(=O)[C@H](C)C(=O)[C@H](C)[C@@H](O[C@@H]2O[C@H](C)C[C@H](N(C)C)[C@H]2O)[C@](C)(OC)C[C@@H](C)C2=NC3CN(CCN(C)C)CC3N3C(=O)O[C@@]1(C)[C@H]3[C@H]2C (stereo partly drawn) = 1.56 µg/mL

Entry "CC[C@H]1OC(=O)[C@H](C)C(=O)[C@H](C)[C@@H](O[C@@H]2O[C@H](C)C[C@H](N(C)C)[C@H]2O)[C@](C)(OC)C[C@@H](C)C2=NC[C@H](Cc3ccc(OCc4ccccc4)cc3)N3C(=O)O[C@@]1(C)[C@H]3[C@H]2C" has what MIC? 0.2 µg/mL

Entry CC[C@H]1OC(=O)[C@H](C)C(=O)[C@H](C)[C@@H](O[C@@H]2O[C@H](C)C[C@H](N(C)C)[C@H]2O)[C@](C)(OC)C[C@@H](C)C2=NC3CCCC3N3C(=O)O[C@@]1(C)[C@H]3[C@H]2C (stereo partly drawn) has what MIC? 0.78 µg/mL

Entry CCC1OC(=O)C(C)C(=O)C(C)C(OC2OC(C)CC(N(C)C)C2O)C(C)(OC)CC(C)C2=NC(CN3CCCCC3)CN3C(=O)OC1(C)C3C2C (stereo not drawn) has what MIC? 0.39 µg/mL

Entry "CC[C@H]1OC(=O)[C@H](C)C[C@H](C)[C@@H](O[C@@H]2O[C@H](C)C[C@H](N(C)C)[C@H]2O)[C@](C)(OC)C[C@@H](C)C2=NCCN3C(=O)O[C@@]1(C)[C@H]3[C@H]2C" has what MIC? 6.2 µg/mL

Entry "CC[C@H]1OC(=O)[C@H](C)C(=O)[C@H](C)[C@@H](O[C@@H]2O[C@H](C)C[C@H](N(C)C)[C@H]2O)[C@](C)(OC)C[C@@H](C)C2=N[C@H](COCc3ccc(Cl)cc3)CN3C(=O)O[C@@]1(C)[C@H]3[C@H]2C" has what MIC? 0.39 µg/mL

* * *

# Tested on: STAPHYLOCOCCUS EPIDERMIDIS 3519
# Type: cell-based
# EXPERIMENTAL_SETUP: S. epidermidis 3519; BHI agar; unit assumed
This section presents compounds with their documented MIC values.
Give a bare numeral; the unit µg/mL is implied.

Worked set:
CCC1OC(=O)C(C)C(=O)C(C)C(OC2OC(C)CC(N(C)C)C2O)C(C)(OC)CC(C)C2=NC(COCc3ccc(N(C)C)cc3)CN3C(=O)OC1(C)C3C2C (stereo not shown) [Example 76] = 0.39
CC[C@H]1OC(=O)[C@H](C)C(=O)[C@H](C)[C@@H](O[C@@H]2O[C@H](C)C[C@H](N(C)C)[C@H]2O)[C@](C)(OC)C[C@@H](C)C2=N[C@H](COCc3cccc(Cl)c3)CN3C(=O)O[C@@]1(C)[C@H]3[C@H]2C [Example 80] = 0.39
CC[C@H]1OC(=O)[C@H](C)C(=O)[C@H](C)[C@@H](O[C@@H]2O[C@H](C)C[C@H](N(C)C)[C@H]2O)[C@](C)(OC)C[C@@H](C)C2=NC[C@H](C)N3C(=O)O[C@@]1(C)[C@H]3[C@H]2C [Example 8] = 0.78

Entry CC[C@H]1OC(=O)[C@H](C)C(=O)[C@H](C)[C@@H](O[C@@H]2O[C@H](C)C[C@H](N(C)C)[C@H]2O)[C@](C)(OC)C[C@@H](C)C2=NC3CN(Cc4ccccc4)CC3N3C(=O)O[C@@]1(C)[C@H]3[C@H]2C (stereo partly shown) [Example 110] has what MIC? 0.2

* * *

# Tested on: PROVIDENCIA STUARTII CMX 640
This section presents compounds with their documented MIC values.

CC[C@H]1OC(=O)[C@H](C)C(=O)[C@H](C)[C@@H](O[C@@H]2O[C@H](C)C[C@H](N(C)C)[C@H]2O)[C@](C)(OC)C[C@@H](C)C2=NC3CCCC3N3C(=O)O[C@@]1(C)[C@H]3[C@H]2C (some centres unmarked) = > 100 µg/mL

Consider now this further compound.
Entry "CC[C@H]1OC(=O)[C@H](C)C(=O)[C@H](C)[C@@H](O[C@@H]2O[C@H](C)C[C@H](N(C)C)[C@H]2O)[C@](C)(OC)C[C@@H](C)C2=N[C@@H](Cc3ccccc3)CN3C(=O)O[C@@]1(C)[C@H]3[C@H]2C" has what MIC? > 100 µg/mL

* * *

# System: STREPTOCOCCUS PYOGENES PIU 2548
# TEST_SUMMARY: In vitro antibacterial activity, MIC, BHI agar dilution
# Type: cell-based
# EXPERIMENTAL_SETUP: S. pyogenes PIU 2548, unit assumed
Label key: Met means MIC under 0.4 µg/mL; Not met means MIC of 0.4 µg/mL or more.

Would you please look over these solved cases?
CC[C@H]1OC(=O)[C@H](C)C(=O)[C@H](C)[C@@H](O[C@@H]2O[C@H](C)C[C@H](N(C)C)[C@H]2O)[C@](C)(OC)C[C@@H](C)C2=NC3CN(CCc4ccc(NC(C)=O)cc4)CC3N3C(=O)O[C@@]1(C)[C@H]3[C@H]2C (some centres unmarked) = Not met
C#CCN1CC2N=C3[C@H](C)C[C@@](C)(OC)[C@H](O[C@@H]4O[C@H](C)C[C@H](N(C)C)[C@H]4O)[C@@H](C)C(=O)[C@@H](C)C(=O)O[C@H](CC)[C@@]4(C)OC(=O)N(C2C1)[C@@H]4[C@H]3C (some centres unmarked) = Not met
CC[C@H]1OC(=O)[C@H](C)C(=O)[C@H](C)[C@@H](O[C@@H]2O[C@H](C)C[C@H](N(C)C)[C@H]2O)[C@](C)(OC)C[C@@H](C)C2=NC[C@H](Cc3ccc(O)cc3)N3C(=O)O[C@@]1(C)[C@H]3[C@H]2C = Not met
CC[C@H]1OC(=O)[C@H](C)C(=O)[C@H](C)[C@@H](O[C@@H]2O[C@H](C)C[C@H](N(C)C)[C@H]2O)[C@](C)(OC)C[C@@H](C)C2=NCC(COC(=O)c3ccc([N+](=O)[O-])cc3)N3C(=O)O[C@@]1(C)[C@H]3[C@H]2C (some centres unmarked) = Met
CC[C@H]1OC(=O)[C@H](C)C(=O)[C@H](C)[C@@H](O[C@@H]2O[C@H](C)C[C@H](N(C)C)[C@H]2O)[C@](C)(OC)C[C@@H](C)C2=NC3CN(CCN(C)C)CC3N3C(=O)O[C@@]1(C)[C@H]3[C@H]2C (some centres unmarked) = Not met

Does the reported MIC of "CC[C@H]1OC(=O)[C@H](C)C(=O)[C@H](C)[C@@H](O[C@@H]2O[C@H](C)C[C@H](N(C)C)[C@H]2O)[C@](C)(OC)C[C@@H](C)C2=N[C@H](COCc3ccccc3F)CN3C(=O)O[C@@]1(C)[C@H]3[C@H]2C" stay below 0.4 µg/mL? Met
